The measurements presented in this section are drawn from patent US20240343803A1.

Biological target: T1, Fusion protein of extracellular domain of human TIGIT and His-tag (human TIGIT ECD-his) (human)
T1 chain: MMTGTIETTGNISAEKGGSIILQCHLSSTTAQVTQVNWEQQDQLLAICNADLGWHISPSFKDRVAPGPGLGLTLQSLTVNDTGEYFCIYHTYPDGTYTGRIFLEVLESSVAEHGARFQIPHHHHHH
Experiment: BIAcore
Measured koff, listed per entry for reference.
Write the number in s⁻¹ without appending the unit.

Solved cases below.
# BINDER, UNIT_INFO, koff
rows = [
    ("TIGIT-006-H2L2 (antibody, V domains shown, Humanized anti-TIGIT antibody) VH: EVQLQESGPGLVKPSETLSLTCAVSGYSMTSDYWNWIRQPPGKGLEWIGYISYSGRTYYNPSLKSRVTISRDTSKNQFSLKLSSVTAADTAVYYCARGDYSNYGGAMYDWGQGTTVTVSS VL: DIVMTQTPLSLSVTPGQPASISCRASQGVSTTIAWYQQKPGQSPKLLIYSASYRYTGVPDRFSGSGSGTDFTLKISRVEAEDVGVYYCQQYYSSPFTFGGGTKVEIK", "s⁻¹", 0.000324),
    ("TIGIT-006-H3L3 (antibody, V domains shown, Humanized anti-TIGIT antibody) VH: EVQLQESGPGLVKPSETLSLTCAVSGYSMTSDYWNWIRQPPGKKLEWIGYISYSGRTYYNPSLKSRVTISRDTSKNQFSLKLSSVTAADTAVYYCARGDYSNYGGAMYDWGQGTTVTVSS VL: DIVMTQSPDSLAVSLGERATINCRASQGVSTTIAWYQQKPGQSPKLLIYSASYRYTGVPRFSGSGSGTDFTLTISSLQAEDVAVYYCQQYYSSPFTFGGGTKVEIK", "s⁻¹", 0.000176),
]

Next binder, please.
Query: Param item = TIGIT-005-H2L1c (antibody, V domains shown, Humanized anti-TIGIT antibody with NG-site mutation in VL) VH: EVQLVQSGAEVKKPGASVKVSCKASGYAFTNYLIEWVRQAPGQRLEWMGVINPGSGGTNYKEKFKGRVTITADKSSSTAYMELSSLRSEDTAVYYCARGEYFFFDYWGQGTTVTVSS VL: DIVMTQSPDSLAVSLGERATINCKASQHVSDGVAWYQHKPGQSPKLLIYSASYRYTGVPDRFSGSGSGTDFTLTISSLQAEDVAVYYCQQHYNTPHTFGGGTKVEIK ; retrieve measured koff.
Response: 0.000459
